Every entry's value here was drawn from patent US8957049B2.

- measured.target: human FAAH (Homo sapiens)
- Construct: host or cells: COS-7 cells, transient transfection (FuGENE 6); 13,000 g membrane fraction solubilised in 1% Triton X-100
- method: Human FAAH biochemical inhibition assay (AMC arachidonoyl amide fluorescence)
- conditions.used: class given in each Example, read-out: Activity (Ki, inhibition of human FAAH)
quantity.kind: Ki

Some solved cases for reference:
smiles	data.value
Cc1cc2cc(B(O)O)ccc2nc1Oc1ccccc1	≤ 10 nM
CCCN1CCC(Cc2nc3ccc(B(O)O)cc3o2)CC1	100 to 1000 nM
COCc1nnc(-c2ccc(B(O)O)cc2)o1	≤ 10 nM

With human FAAH (Homo sapiens) as the test system, OB(O)c1ccc([C@H]2OC[C@H](c3ccccc3)CO2)cc1F showed Ki of ≤ 10 nM

---

- measured.target: human FAAH (Homo sapiens)
- Construct: host or cells: COS-7 cells, transient transfection (FuGENE 6); 13,000 g membrane fraction solubilised in 1% Triton X-100
- method: Human FAAH biochemical inhibition assay (AMC arachidonoyl amide fluorescence)
- conditions.used: class given in each Example, read-out: Activity (Ki, inhibition of human FAAH)
quantity.kind: Ki

Some solved cases for reference:
molecule	quantity.kind	data.value
OB(O)c1ccc2cn(Cc3ccccc3)nc2c1	Ki	≤ 10 nM
OB(O)c1ccc(-c2nnc(-c3ccccc3)o2)nc1	Ki	10 to 100 nM
OB(O)c1csc(-c2nnc(Cc3ccccc3)o2)c1	Ki	≤ 10 nM
OB(O)c1ccc(-c2nnc(-c3ccccc3)o2)cc1	Ki	≤ 10 nM
OB(O)c1ccc(OCCc2ccccc2)cc1-c1nnc(-c2ccco2)o1	Ki	≤ 10 nM

For this molecule ( CCCCOc1ccc(B(O)O)c(-c2nnc(C)o2)c1 ), measured Ki is 10 to 100 nM

For this molecule ( COc1cccc(Oc2ccc3cc(B(O)O)ccc3n2)c1 ), measured Ki is ≤ 10 nM

For this molecule ( OB(O)c1csc(-c2nnc(CCc3ccccc3)o2)c1 ), measured Ki is ≤ 10 nM

For this molecule ( CCCCCC1(CCCCC)CC(c2ccc(B(O)O)cc2)=NO1 ), measured Ki is 100 to 1000 nM

For this molecule ( OB(O)c1ccc(-c2nnc(CC3CCCC3)o2)cc1 ), measured Ki is ≤ 10 nM

For this molecule ( OB(O)c1ccc(-c2cc(-c3cccnc3)on2)cc1 ), measured Ki is ≤ 10 nM

For this molecule ( COC(=O)C1CC(Cc2ccccc2)ON1Cc1ccc(B(O)O)c(F)c1 (stereo not shown) ), measured Ki is 10 to 100 nM

For this molecule ( OB(O)c1ccc(-c2ncc(-c3ccccc3)o2)cc1F ), measured Ki is 10 to 100 nM

For this molecule ( OB(O)c1ccc2nn(CCc3ccccc3)cc2c1 ), measured Ki is ≤ 10 nM

For this molecule ( CCCCOc1ccc(B(O)O)c(-c2nnc(CCC)o2)c1 ), measured Ki is 10 to 100 nM

For this molecule ( CCCc1nnc(-c2ccc(F)cc2B(O)O)o1 ), measured Ki is > 1000 nM

For this molecule ( OB(O)c1ccc(-c2nnc(-c3cccc4c3OCCO4)o2)cc1 ), measured Ki is ≤ 10 nM

For this molecule ( OB(O)c1ccc(-c2nnc(-c3cccc4c3OCO4)o2)cc1 ), measured Ki is ≤ 10 nM

---

- measured.target: human FAAH (Homo sapiens)
- Construct: host or cells: COS-7 cells, transient transfection (FuGENE 6); 13,000 g membrane fraction solubilised in 1% Triton X-100
- method: Human FAAH biochemical inhibition assay (AMC arachidonoyl amide fluorescence)
- conditions.used: class given in each Example, read-out: Activity (Ki, inhibition of human FAAH)
- Experimental: Exemplary compounds are set forth in the Examples provided below. Compounds were assayed as inhibitors of human FAAH using the method described in detail in Example 286. […] Rat FAAH biochemical assays were carried out in a 96 well flat bottom black non-treated polystyrene plates (Corning Costar Catalogue #3915). […] The reaction was read in an Envision microtiter plate reader [Excitation filter 355 nm (40 nm bandpass); Emmision filter 460 nm (25 nm bandpass)]. […]
pKi: −log10 of the molar value.
Catalogue of pKi values

Some solved cases for reference:
compound	pKi
C=CCCCc1nnc(-c2ccc(B(O)O)cc2)o1 [Compound 78]	≥ 8.00
OB1ON=Cc2cc(OCc3ccccc3)ccc21 [Compound 105]	7.00 to 8.00
OB(O)c1ccc2nc(Oc3ccccc3Cl)ccc2c1 [Compound 196]	≥ 8.00
Cn1cncc1-c1nnc(-c2cc(OCCc3ccccc3)ccc2B(O)O)o1 [Compound 268]	7.00 to 8.00

As a next step, examine the compound that follows.
For this compound ( OB(O)c1ccc(-c2nnc(-c3ccccc3)o2)c(C(F)(F)F)c1 [Compound 81] ), measured pKi is 6.00 to 7.00

---

- measured.target: human FAAH (Homo sapiens)
- Construct: host or cells: COS-7 cells, transient transfection (FuGENE 6); 13,000 g membrane fraction solubilised in 1% Triton X-100
- method: Human FAAH biochemical inhibition assay (AMC arachidonoyl amide fluorescence)
- conditions.used: class given in each Example, read-out: Activity (Ki, inhibition of human FAAH)
quantity.kind: Ki

Some solved cases for reference:
smiles	data.value
CN(CCc1ccc(B(O)O)c(F)c1)S(=O)(=O)c1ccccc1	≤ 10 nM
COc1ccc2cc(-c3ccc(B(O)O)cc3)ccc2c1	10 to 100 nM
CCCCOc1ccc2cc(B(O)O)ccc2n1	≤ 10 nM
OB(O)c1ccc2nc(CCc3ccccc3)sc2c1	≤ 10 nM
OB(O)c1ccc([C@@H]2OC[C@@H](c3ccccc3)O2)cc1	≤ 10 nM

With human FAAH (Homo sapiens) as the test system, OB1c2sccc2C=NN1Cc1ccccc1 showed Ki of > 1000 nM

With human FAAH (Homo sapiens) as the test system, OB(O)c1ccc([C@@H]2OC[C@H](c3ccccc3)O2)cc1 showed Ki of ≤ 10 nM

With human FAAH (Homo sapiens) as the test system, OB(O)c1ccc([C@H]2OC[C@H](c3ccccc3)O2)cc1 showed Ki of ≤ 10 nM

With human FAAH (Homo sapiens) as the test system, O=C1c2ccc(B(O)O)cc2C(=O)N1Cc1ccccc1 showed Ki of ≤ 10 nM

With human FAAH (Homo sapiens) as the test system, CN(CCCc1ccc(B(O)O)cc1)S(=O)(=O)c1ccccc1 showed Ki of ≤ 10 nM

With human FAAH (Homo sapiens) as the test system, CCCCCc1nnc(-c2ccc(B(O)O)cc2)o1 showed Ki of ≤ 10 nM

With human FAAH (Homo sapiens) as the test system, OB(O)c1ccc(Oc2cncc(F)c2)cc1 showed Ki of ≤ 10 nM

---

- measured.target: human FAAH (Homo sapiens, UniProt O00519)
- Construct: host or cells: COS-7 cells, transient transfection (FuGENE 6); 13,000 g membrane fraction solubilised in 1% Triton X-100
- Sequence (O00519 whole entry): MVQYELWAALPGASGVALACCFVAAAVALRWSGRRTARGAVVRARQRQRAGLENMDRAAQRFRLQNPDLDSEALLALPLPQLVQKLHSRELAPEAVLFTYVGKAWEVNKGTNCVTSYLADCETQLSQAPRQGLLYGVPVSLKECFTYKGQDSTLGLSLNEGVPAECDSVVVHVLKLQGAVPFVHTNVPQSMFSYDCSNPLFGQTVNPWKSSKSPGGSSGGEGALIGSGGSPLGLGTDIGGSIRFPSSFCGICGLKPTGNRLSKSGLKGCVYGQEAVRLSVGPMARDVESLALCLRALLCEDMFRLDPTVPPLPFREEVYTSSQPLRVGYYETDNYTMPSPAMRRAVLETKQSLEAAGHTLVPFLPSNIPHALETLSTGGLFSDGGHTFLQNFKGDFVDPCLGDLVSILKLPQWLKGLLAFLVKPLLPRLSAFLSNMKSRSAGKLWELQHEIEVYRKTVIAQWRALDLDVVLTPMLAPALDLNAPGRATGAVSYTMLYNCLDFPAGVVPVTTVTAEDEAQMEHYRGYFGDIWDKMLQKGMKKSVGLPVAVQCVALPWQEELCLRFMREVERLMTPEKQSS
- method: Human FAAH biochemical inhibition assay (AMC arachidonoyl amide fluorescence)
- conditions.used: class given in each Example, read-out: Activity (Ki, inhibition of human FAAH)
pKi: −log10 of the molar value.
quantity.kind: pKi

Some solved cases for reference:
molecule	measured.target	pKi
O=C1CCCN1CCc1nnc(-c2ccccc2B(O)O)o1	human FAAH (Homo sapiens, UniProt O00519)	< 6.00
CCCc1nnc(-c2ccccc2B(O)O)o1	human FAAH (Homo sapiens, UniProt O00519)	< 6.00
CCCCCc1nnc(-c2ccccc2B(O)O)o1	human FAAH (Homo sapiens, UniProt O00519)	< 6.00

With human FAAH (Homo sapiens, UniProt O00519) as the test system, OB(O)c1ccc(-c2cc(-c3ccccc3)on2)cc1 showed pKi of ≥ 8.00

With human FAAH (Homo sapiens, UniProt O00519) as the test system, OB(O)c1ccc(-c2cnnn2Cc2ccccc2)cc1F showed pKi of 6.00 to 7.00

With human FAAH (Homo sapiens, UniProt O00519) as the test system, O=Cc1cc(OCCc2ccccc2)ccc1B(O)O showed pKi of ≥ 8.00

With human FAAH (Homo sapiens, UniProt O00519) as the test system, O=C(CCc1ccccc1)N1CCC(Cc2nc3ccc(B(O)O)cc3o2)CC1 showed pKi of ≥ 8.00

With human FAAH (Homo sapiens, UniProt O00519) as the test system, CN(CCc1ccc(B(O)O)cc1)S(=O)(=O)c1ccccc1 showed pKi of ≥ 8.00

With human FAAH (Homo sapiens, UniProt O00519) as the test system, OCc1cc(OCc2ccccc2)ccc1B(O)O showed pKi of < 6.00

With human FAAH (Homo sapiens, UniProt O00519) as the test system, O=C(Cc1c[nH]c2ccccc12)N/N=C/c1ccccc1B(O)O showed pKi of < 6.00

With human FAAH (Homo sapiens, UniProt O00519) as the test system, OB(O)c1ccc(C2=NOC(c3cccnc3)C2)cc1 (stereo not drawn) showed pKi of 7.00 to 8.00

With human FAAH (Homo sapiens, UniProt O00519) as the test system, OB(O)c1ccc(-c2cnn(-c3ccccc3)c2)cc1 showed pKi of ≥ 8.00
